Target: Low-density lipoprotein receptor-related protein 6 (Homo sapiens, UniProt O75581)
Sequence (O75581 whole entry): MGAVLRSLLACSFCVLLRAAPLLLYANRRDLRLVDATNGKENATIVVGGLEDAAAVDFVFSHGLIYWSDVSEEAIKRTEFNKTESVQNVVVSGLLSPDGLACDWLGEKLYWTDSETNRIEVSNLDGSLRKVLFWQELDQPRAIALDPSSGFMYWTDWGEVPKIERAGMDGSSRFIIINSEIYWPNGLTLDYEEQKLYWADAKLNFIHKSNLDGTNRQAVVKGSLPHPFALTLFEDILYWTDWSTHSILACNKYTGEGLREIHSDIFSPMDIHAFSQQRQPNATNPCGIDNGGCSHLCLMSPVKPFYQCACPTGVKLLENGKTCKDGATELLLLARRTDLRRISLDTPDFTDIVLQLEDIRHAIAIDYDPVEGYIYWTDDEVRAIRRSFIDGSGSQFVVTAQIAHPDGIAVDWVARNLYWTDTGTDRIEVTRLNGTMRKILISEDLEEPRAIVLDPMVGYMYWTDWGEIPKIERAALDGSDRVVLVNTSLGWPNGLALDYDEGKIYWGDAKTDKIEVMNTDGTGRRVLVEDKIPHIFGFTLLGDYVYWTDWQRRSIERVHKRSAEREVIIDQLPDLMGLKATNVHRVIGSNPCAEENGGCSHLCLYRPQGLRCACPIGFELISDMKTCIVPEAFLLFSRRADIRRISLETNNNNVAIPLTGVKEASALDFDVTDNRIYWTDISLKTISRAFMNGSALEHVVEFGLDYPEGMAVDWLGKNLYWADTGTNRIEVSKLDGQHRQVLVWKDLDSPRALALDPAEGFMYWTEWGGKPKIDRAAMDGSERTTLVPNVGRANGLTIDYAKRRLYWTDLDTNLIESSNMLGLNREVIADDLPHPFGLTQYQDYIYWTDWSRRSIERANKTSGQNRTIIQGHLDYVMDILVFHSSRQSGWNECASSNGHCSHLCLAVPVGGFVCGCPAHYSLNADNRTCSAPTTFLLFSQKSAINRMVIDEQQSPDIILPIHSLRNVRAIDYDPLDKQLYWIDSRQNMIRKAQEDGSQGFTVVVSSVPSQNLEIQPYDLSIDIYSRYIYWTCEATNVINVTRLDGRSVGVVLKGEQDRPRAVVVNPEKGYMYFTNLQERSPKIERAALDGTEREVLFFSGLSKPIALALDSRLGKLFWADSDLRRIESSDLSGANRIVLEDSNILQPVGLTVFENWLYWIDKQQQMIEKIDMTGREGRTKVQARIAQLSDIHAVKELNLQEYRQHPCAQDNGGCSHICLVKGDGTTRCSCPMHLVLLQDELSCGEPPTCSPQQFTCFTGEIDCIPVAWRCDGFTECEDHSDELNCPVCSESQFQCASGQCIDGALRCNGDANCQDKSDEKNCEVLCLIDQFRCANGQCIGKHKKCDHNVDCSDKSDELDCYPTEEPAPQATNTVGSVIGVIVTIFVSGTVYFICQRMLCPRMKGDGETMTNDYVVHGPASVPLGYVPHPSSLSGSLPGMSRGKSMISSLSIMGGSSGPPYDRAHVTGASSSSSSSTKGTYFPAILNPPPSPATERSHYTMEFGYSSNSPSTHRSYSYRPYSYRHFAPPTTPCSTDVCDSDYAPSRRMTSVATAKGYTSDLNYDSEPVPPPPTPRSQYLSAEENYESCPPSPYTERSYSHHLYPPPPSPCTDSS
Assay: Binding affinity to human LRP6 expressed in HEK293 cells assessed as inhibition of DKK1/LRP6 interaction using compound pre-treated DKK1 conditioned media after 2 hrs by fluorescence microscopic analysis
reported_endpoint: pIC50
Remember the convention: pIC50 equals -log10 of concentration in molar.

Indicate its recorded pIC50; the molecule in question is `COC(=O)c1c2nc3ccc(N(C)C)cc3oc-2c(O)c(=O)c1Nc1ccc(Cl)c(Cl)c1`
5.31

Indicate its recorded pIC50; the molecule in question is `COC(=O)c1c2nc3ccc(N(C)C)cc3oc-2c(O)c(=O)c1Nc1ccc(C)cc1`
5.42

Indicate its recorded pIC50; the molecule in question is `COC(=O)c1c2nc3ccc(N(C)C)cc3oc-2c(O)c(=O)c1NC1CCCCC1`
5.39

Indicate its recorded pIC50; the molecule in question is `COC(=O)c1c2nc3ccc(N(C)C)cc3oc-2c(O)c(=O)c1NCc1ccc(OC)cc1`
5.36

Indicate its recorded pIC50; the molecule in question is `COC(=O)c1c2nc3ccc(N(C)C)cc3oc-2c(O)c(=O)c1Nc1ccc(OC)cc1`
5.33

Indicate its recorded pIC50; the molecule in question is `COC(=O)c1c2nc3ccc(N(C)C)cc3oc-2c(O)c(=O)c1NC1CCCC1`
5.34

Indicate its recorded pIC50; the molecule in question is `COC(=O)c1c2nc3ccc(N(C)C)cc3oc-2c(O)c(=O)c1N1CCOCC1`
5.43

Indicate its recorded pIC50; the molecule in question is `COC(=O)c1c2nc3ccc(N(C)C)cc3oc-2c(O)c(=O)c1N`
5.28

Indicate its recorded pIC50; the molecule in question is `COC(=O)c1c2nc3ccc(N(C)C)cc3oc-2c(O)c(=O)c1Nc1ccccc1`
5.21

Indicate its recorded pIC50; the molecule in question is `COC(=O)c1c2nc3ccc(N(C)C)cc3oc-2c(O)c(=O)c1N1CCCCC1`
5.26

Indicate its recorded pIC50; the molecule in question is `CCCCOC(=O)c1c2nc3ccc(N(C)C)cc3oc-2c(O)c(=O)c1NCc1ccc(OC)cc1`
5.47
